System: LXFL 529 NSCLC
Assay: NCI tumour cell line growth inhibition, 48 h
MEASURED_QUANTITY: TGI (µM)

CC(CNCCCNCCNCCCNCO)[N+](=O)[O-] (stereo not given) : 13.9
COc1ccc(-c2cc(-c3cc(Cl)cc(Br)c3O)[nH]c(=O)n2)cc1 : 30

====

System: U251 CNS
Assay: NCI tumour cell line growth inhibition, 48 h
MEASURED_QUANTITY: TGI

O=C(O)CN1CCN(CC(=O)N2CCN(C(=O)OCc3ccccc3)CC2)CCN(CC(=O)O)CCN(CC(=O)N2CCN(C(=O)OCc3ccccc3)CC2)CC1 : > 100 µM
CC1=CC(C)C(C)N(CCNS(=O)(=O)c2ccc(C)cc2)c2ccccc21 (stereo not given) : 31.7 µM
Cc1cc(N2CCCC2)nc(NCc2cc(Nc3ccnc4cc(Cl)ccc34)ccc2F)n1 : 2.84 µM
C=CC1(NS(=O)(=O)c2ccc(C)cc2)CCC(C(C)(C)C)CC1 (stereo not given) : > 100 µM
CC(CNCCCNCCNCCCNCO)[N+](=O)[O-] (stereo not given) : 29.5 µM
